Ref: patent US9232799B2

Would you mind telling me the reported % Inhibition of Aflatoxin at 50 μM of each entry?
- Tested on: aflatoxines production
- Experiment Summary: microbe, parasite or virus in culture
- Assay type: cell-based, Aspergillus parasiticus
- Experimental Context: 50 μM
Answers are plain numbers, in %.

Solved entries (count: 4):
Compound	Unit Tag	% Inhibition of Aflatoxin at 50 μM
COC(CNC(=O)c1c(C(F)F)nn(C)c1Cl)c1cc(Cl)cc(Cl)c1 (centres unmarked)	%	89
Cn1nc(C(F)F)c(C(=O)NCCc2ccccc2Cl)c1F	%	100
CN(CCc1cc(Cl)ccc1Cl)C(=O)c1c(C(F)F)nn(C)c1F	%	100
CC(Cc1cccc(Oc2ccccc2)c1)NC(=O)c1c(C(F)F)nn(C)c1Cl (centres unmarked)	%	93

Then there is this compound:
[in] Returns the measured % Inhibition of Aflatoxin at 50 μM for the input compound. Input: COC(CN(C(=O)c1c(C(F)F)nn(C)c1F)C1CC1)c1ccc(Cl)cc1Cl (centres unmarked)
[out] 100

###

Would you mind telling me the reported % Inhibition of Aflatoxin at 50 μM of each entry?
- System: aflatoxines production
- Experiment Summary: microbe, parasite or virus in culture
- Format: cell-based, Aspergillus parasiticus
- Experimental Context: 50 μM
One number for each entry, in %.

Solved entries (count: 5):
Molecule	% Inhibition of Aflatoxin at 50 μM [%]
Cn1nc(C(F)F)c(C(=O)N(C[Si](C)(C)c2ccc3ccccc3c2)C2CC2)c1F	100
Cn1nc(C(F)F)c(C(=O)NCCc2cccc(Cl)c2)c1F	100
CC(c1ccccc1Cl)C(C)N(C(=O)c1c(C(F)F)nn(C)c1Cl)C1CC1 (stereo not drawn)	100
CC(CN(C(=O)c1c(C(F)F)nn(C)c1Cl)C1CC1)c1ccccc1 (stereo not drawn)	100
Cn1nc(C(F)F)c(C(=O)NCCc2c(Cl)cccc2Cl)c1F	100

[in] Returns the measured % Inhibition of Aflatoxin at 50 μM for the input molecule. Input: CC(Cc1ccc(Cl)cc1Cl)NC(=S)c1c(C(F)F)nn(C)c1F (stereo not drawn)
[out] 100

###

- Test system: Fusarium graminearum
- Experiment Summary: microbe, parasite or virus in culture
- Type: cell-based
- Experimental Context: 50 μM
Would you mind telling me the reported % Inhibition of fungal growth at 50 μM of each entry?
Numbers only, in %.

Compound	Measured Property	Unit Tag	Reported Result
CC(CNC(=O)c1c(C(F)F)nn(C)c1F)c1ccccc1Cl (stereo not drawn)	% Inhibition of fungal growth at 50 μM	%	100
Cn1nc(C(F)F)c(C(=O)N(CC(F)(F)c2ccccc2Cl)C2CC2)c1F	% Inhibition of fungal growth at 50 μM	%	100
Cn1nc(C(F)F)c(C(=O)N(CCc2ccccc2)C2CC2)c1Cl	% Inhibition of fungal growth at 50 μM	%	92
Cn1nc(C(F)F)c(C(=O)NC2CC2c2ccc(Cl)cc2)c1F (stereo not drawn)	% Inhibition of fungal growth at 50 μM	%	100

Below are some compounds; for each one, tell me its % Inhibition of fungal growth at 50 μM.
1. Cn1nc(C(F)F)c(C(=O)NC(C)(C)C(=O)c2ncc(C(F)(F)F)cc2Cl)c1Cl
2. Cn1nc(C(F)F)c(C(=O)NCCc2ccsc2Br)c1F
3. Cn1nc(C(F)F)c(C(=O)NC(C)(C)C(=O)c2ccc3ccccc3c2)c1F
4. Cc1cc(C)c(CCN(C)C(=O)c2c(C(F)F)nn(C)c2F)c(C)c1
5. Cn1nc(C(F)F)c(C(=O)NCCc2cccc(Cl)c2)c1Cl

[out]
1. 81
2. 97
3. 100
4. 96
5. 91
